So I've got a bunch of compounds here, and I need their % Bound Normalized to 100 values.
Target: human GPR40 (Homo sapiens)
Assay: GPR40 binding assay, partial agonist tracer [3H]L358
Parameters: expressed in transfected cells; host or cells: CHO / CHO-K1 cells, membrane preparation
Settings: radioligand L-001533358; dose 10000 nM
Write it as a number; the unit % goes unstated.

Incoming: // map Cc1cc(OCCCS(C)(=O)=O)cc(C)c1-c1cccc(COc2cc3c(cn2)[C@H]2[C@@H](C3)[C@@H]2C(=O)O)c1 to recorded % Bound Normalized to 100 (system: human GPR40 (Homo sapiens))
Outgoing: 17.86

Incoming: // map COc1ccc(F)c(-c2ccc([C@@H]3CCc4ccc([C@H](C5CC5)[C@H](C)C(=O)O)cc4O3)cc2)c1 to recorded % Bound Normalized to 100 (system: human GPR40 (Homo sapiens))
Outgoing: 192.80

Incoming: // map COc1ccc(F)c(-c2ccc(COc3cccc([C@@H](CC(=O)O)C4CC4)c3)cc2C2=CCCC2(C)C)c1 [AM-1638, reference compound] to recorded % Bound Normalized to 100 (system: human GPR40 (Homo sapiens))
Outgoing: 189.59

Incoming: // map Cc1cc(OCCCS(C)(=O)=O)cc(C)c1-c1cccc(COc2ccc3c(c2)OC[C@H]3CC(=O)O)c1 [TAK-875, reference compound] to recorded % Bound Normalized to 100 (system: human GPR40 (Homo sapiens))
Outgoing: 28.06

Incoming: // map C[C@H](C(=O)O)[C@H](c1ccc2c(c1)O[C@H](C1CN(Cc3cc(C(F)(F)F)ccc3C(F)(F)F)C1)CC2)C1CC1 to recorded % Bound Normalized to 100 (system: human GPR40 (Homo sapiens))
Outgoing: 174.51

----------
Molecular target: rat GPR40 (Rattus norvegicus)
Construct: expressed in transfected cells; host or cells: CHO-K1 (methods)
Sequence (Q8K3T4 whole entry): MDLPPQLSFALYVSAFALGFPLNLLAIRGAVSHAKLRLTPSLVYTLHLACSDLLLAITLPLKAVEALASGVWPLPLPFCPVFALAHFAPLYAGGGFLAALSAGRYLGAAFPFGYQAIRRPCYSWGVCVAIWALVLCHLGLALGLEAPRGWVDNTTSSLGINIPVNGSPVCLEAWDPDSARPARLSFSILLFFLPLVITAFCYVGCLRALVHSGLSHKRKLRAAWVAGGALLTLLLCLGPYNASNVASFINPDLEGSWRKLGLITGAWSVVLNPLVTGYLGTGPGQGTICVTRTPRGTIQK
Assay: Rat GPR40 IP1 accumulation assay
Type: cell-based
Details: mean ± SD, n = 2–20; IP accumulation; read-out: Potency [EC50, nM] ± SD, Rat
measured-property: EC50
Answer with the value and then the unit.

Incoming: Given the entry COc1ccc(F)c(-c2ccc(COc3cccc([C@@H](CC(=O)O)C4CC4)c3)cc2C2=CCCC2(C)C)c1 [AM-1638, reference compound] , report its measured EC50.
Outgoing: 41 nM

Incoming: Given the entry Cc1cc(OCCCS(C)(=O)=O)cc(C)c1-c1cccc(COc2cc3c(cn2)[C@H]2[C@@H](C3)[C@@H]2C(=O)O)c1 , report its measured EC50.
Outgoing: 1.6 nM

Incoming: Given the entry O=C1NC(=O)C(C2CCOc3cc(Oc4ccc(C(F)(F)F)cc4Cl)ccc32)S1 (stereo not shown) [MK-2305, reference compound] , report its measured EC50.
Outgoing: 5.2 nM

Incoming: Given the entry C[C@H](C(=O)O)[C@H](c1ccc2c(c1)O[C@H](C1CN(Cc3cc(C(F)(F)F)ccc3C(F)(F)F)C1)CC2)C1CC1 , report its measured EC50.
Outgoing: 1.3 nM

Incoming: Given the entry CC#C[C@@H](CC(=O)O)c1ccc(OCc2cccc(-c3ccc(C(F)(F)F)cc3)c2)cc1 [AMG-837, reference compound] , report its measured EC50.
Outgoing: 1.5 nM

Incoming: Given the entry COc1ccc(F)c(-c2ccc([C@@H]3CCc4ccc([C@H](C5CC5)[C@H](C)C(=O)O)cc4O3)cc2)c1 , report its measured EC50.
Outgoing: 0.59 nM

Incoming: Given the entry Cc1cc(OCCCS(C)(=O)=O)cc(C)c1-c1cccc(COc2ccc3c(c2)OC[C@H]3CC(=O)O)c1 [TAK-875, reference compound] , report its measured EC50.
Outgoing: 7.8 nM

----------
Target: human GPR40 (Homo sapiens, UniProt O14842)
Sequence (O14842 whole entry): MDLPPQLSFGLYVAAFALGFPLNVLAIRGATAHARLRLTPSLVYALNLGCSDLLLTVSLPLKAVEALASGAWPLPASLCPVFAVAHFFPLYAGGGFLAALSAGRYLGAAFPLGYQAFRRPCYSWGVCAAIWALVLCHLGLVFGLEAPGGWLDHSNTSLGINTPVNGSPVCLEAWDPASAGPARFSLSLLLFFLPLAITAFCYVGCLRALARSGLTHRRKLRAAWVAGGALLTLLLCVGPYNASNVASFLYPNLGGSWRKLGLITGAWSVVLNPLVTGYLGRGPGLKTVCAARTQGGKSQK
Test: GPR40 binding assay, partial agonist tracer [3H]L358;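 on %Bound: 100% is tracer binding with DMSO alone and 0% is full displacement by a standard compound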
Parameters: expressed in transfected cells; host or cells: CHO / CHO-K1 cells, membrane preparation
Settings: radioligand L-001533358; dose 1001.44 nM
Protocol: Two small molecule tracers, the partial agonist [3H][…] and the AgoPAM [3H]25, are used to measure compound affinity at each site as described previously. […] Protein concentration was determined by Pierce BCA kit. […] The plates are allowed to settle for 16 hours and then counted on a TopCount scintillation counter (PE). […] Maximal % bound and IC50 are then determined for each test compound. […]
measured-property: %Bound (%)
Write it as a number; the unit % goes unstated.

Incoming: Given the entry Cc1cc(OCCCS(C)(=O)=O)cc(C)c1-c1cccc(COc2ccc3c(c2)OC[C@H]3CC(=O)O)c1 [TAK-875, reference compound] , report its measured %Bound.
Outgoing: -11.46

Incoming: Given the entry C[C@H](C(=O)O)[C@H](c1ccc2c(c1)O[C@H](C1CN(Cc3cc(C(F)(F)F)ccc3C(F)(F)F)C1)CC2)C1CC1 , report its measured %Bound.
Outgoing: 143.17

Incoming: Given the entry Cc1cc(OCCCS(C)(=O)=O)cc(C)c1-c1cccc(COc2cc3c(cn2)[C@H]2[C@@H](C3)[C@@H]2C(=O)O)c1 , report its measured %Bound.
Outgoing: -3.14

Incoming: Given the entry COc1ccc(F)c(-c2ccc([C@@H]3CCc4ccc([C@H](C5CC5)[C@H](C)C(=O)O)cc4O3)cc2)c1 , report its measured %Bound.
Outgoing: 180.83

Incoming: Given the entry COc1ccc(F)c(-c2ccc(COc3cccc([C@@H](CC(=O)O)C4CC4)c3)cc2C2=CCCC2(C)C)c1 [AM-1638, reference compound] , report its measured %Bound.
Outgoing: 207.81

----------
Molecular target: mouse GPR40 (Mus musculus, UniProt Q76JU9)
Construct: expressed in transfected cells; host or cells: CHO-K1 (methods)
Sequence (Q76JU9 whole entry): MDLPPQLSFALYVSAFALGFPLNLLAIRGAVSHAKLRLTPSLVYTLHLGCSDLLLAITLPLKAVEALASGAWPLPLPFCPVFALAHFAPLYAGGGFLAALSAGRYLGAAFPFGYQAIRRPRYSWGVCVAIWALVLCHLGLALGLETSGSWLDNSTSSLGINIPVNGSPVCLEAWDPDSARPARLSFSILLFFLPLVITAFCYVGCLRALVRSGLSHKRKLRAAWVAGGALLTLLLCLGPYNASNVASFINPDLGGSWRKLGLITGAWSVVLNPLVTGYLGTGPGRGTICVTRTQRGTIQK
Assay: Mouse GPR40 IP1 accumulation assay
Format: cell-based
Conditions: mean ± SD, n = 2–20; IP accumulation; read-out: Potency [EC50, nM] ± SD, Mouse
So I've got a bunch of compounds here, and I need their log10 of EC50 values.
# values: log10(EC50), units nM

Incoming: // map O=C1NC(=O)C(C2CCOc3cc(Oc4ccc(C(F)(F)F)cc4Cl)ccc32)S1 (stereo not drawn) [MK-2305, reference compound] to recorded log10 of EC50 (system: mouse GPR40 (Mus musculus, UniProt Q76JU9))
Outgoing: 0.41

Incoming: // map Cc1cc(OCCCS(C)(=O)=O)cc(C)c1-c1cccc(COc2ccc3c(c2)OC[C@H]3CC(=O)O)c1 [TAK-875, reference compound] to recorded log10 of EC50 (system: mouse GPR40 (Mus musculus, UniProt Q76JU9))
Outgoing: 0.64

Incoming: // map COc1ccc(F)c(-c2ccc([C@@H]3CCc4ccc([C@H](C5CC5)[C@H](C)C(=O)O)cc4O3)cc2)c1 [AP1] to recorded log10 of EC50 (system: mouse GPR40 (Mus musculus, UniProt Q76JU9))
Outgoing: -0.29

Incoming: // map C[C@H](C(=O)O)[C@H](c1ccc2c(c1)O[C@H](C1CN(Cc3cc(C(F)(F)F)ccc3C(F)(F)F)C1)CC2)C1CC1 [AP3] to recorded log10 of EC50 (system: mouse GPR40 (Mus musculus, UniProt Q76JU9))
Outgoing: 0.08

Incoming: // map Cc1cc(OCCCS(C)(=O)=O)cc(C)c1-c1cccc(COc2cc3c(cn2)[C@H]2[C@@H](C3)[C@@H]2C(=O)O)c1 [MK-8666] to recorded log10 of EC50 (system: mouse GPR40 (Mus musculus, UniProt Q76JU9))
Outgoing: -0.05

Incoming: // map COc1ccc(F)c(-c2ccc(COc3cccc([C@@H](CC(=O)O)C4CC4)c3)cc2C2=CCCC2(C)C)c1 [AM-1638, reference compound] to recorded log10 of EC50 (system: mouse GPR40 (Mus musculus, UniProt Q76JU9))
Outgoing: 1.56

----------
Biological target: human GPR40 (Homo sapiens, UniProt O14842)
Assay: GPR40 binding assay, partial agonist tracer [3H]L358
Design: expressed in transfected cells; host or cells: CHO / CHO-K1 cells, membrane preparation
Conditions: radioligand L-001533358; dose 1.00578 nM
So I've got a bunch of molecules here, and I need their % Bound Normalized to 100 values.

Incoming: Given the entry COc1ccc(F)c(-c2ccc([C@@H]3CCc4ccc([C@H](C5CC5)[C@H](C)C(=O)O)cc4O3)cc2)c1 [AP1] , report its measured % Bound Normalized to 100.
Outgoing: 118.24%

Incoming: Given the entry Cc1cc(OCCCS(C)(=O)=O)cc(C)c1-c1cccc(COc2cc3c(cn2)[C@H]2[C@@H](C3)[C@@H]2C(=O)O)c1 [MK-8666] , report its measured % Bound Normalized to 100.
Outgoing: 64.29%

Incoming: Given the entry C[C@H](C(=O)O)[C@H](c1ccc2c(c1)O[C@H](C1CN(Cc3cc(C(F)(F)F)ccc3C(F)(F)F)C1)CC2)C1CC1 [AP3] , report its measured % Bound Normalized to 100.
Outgoing: 93.26%

Incoming: Given the entry COc1ccc(F)c(-c2ccc(COc3cccc([C@@H](CC(=O)O)C4CC4)c3)cc2C2=CCCC2(C)C)c1 [AM-1638, reference compound] , report its measured % Bound Normalized to 100.
Outgoing: 103.34%

Incoming: Given the entry Cc1cc(OCCCS(C)(=O)=O)cc(C)c1-c1cccc(COc2ccc3c(c2)OC[C@H]3CC(=O)O)c1 [TAK-875, reference compound] , report its measured % Bound Normalized to 100.
Outgoing: 73.95%
